Test: Human liver microsome stability assay
Format: in vitro ADME
Conditions: 10 μM compound; 2 hr
We begin with a simple list: items and their reported % left after 2 hr. (Human LM).

For this molecule ( Cc1noc(-c2ncn3c2[C@@H](C)N=C(c2ccccn2)c2cc(Br)ccc2-3)n1 ), measured % left after 2 hr. (Human LM) is 76.0 ± 0.2%

For this molecule ( C#Cc1ccc2c(c1)C(c1ccccc1F)=N[C@@H](C)c1c(C(=O)N(C)C)ncn1-2 ), measured % left after 2 hr. (Human LM) is 36.4 ± 2.0%

For this molecule ( C#Cc1ccc2c(c1)C(c1ccccc1F)=N[C@@H](C)c1c(-c3nc(C)no3)ncn1-2 ), measured % left after 2 hr. (Human LM) is 86.4 ± 0.3%

For this molecule ( C#Cc1ccc2c(c1)C(c1ccccc1F)=NCc1c(-c3nc(C)no3)ncn1-2 ), measured % left after 2 hr. (Human LM) is 82.0 ± 0.3%

For this molecule ( CNC(=O)c1ncn2c1CN=C(c1ccccc1F)c1cc(Br)ccc1-2 ), measured % left after 2 hr. (Human LM) is 80.2 ± 0.4%

###

Assay: Pharmacokinetics in mice (plasma, liver, brain)
Conditions: C57/BL6, mouse, liver, ip, 10 mg/kg
READOUT: concentration at 20 min (ng/g)
Kindly answer with a numeric value in ng/g, unit omitted.

For this compound ( C#Cc1ccc2c(c1)C(c1ccccc1F)=N[C@H](C)c1c(C(=O)N3CCCC3)ncn1-2 ), measured concentration at 20 min is 4360

###

Test system: HEK293
Assay: Cytotoxicity assay (CellTiter-Glo), HEK293
Type: cell-based, human
Settings: 48 hours incubation
Protocol: Human liver hepatocellular carcinoma (HEPG2) and human embryonic kidney 293 (HEK293) cell lines were purchased (ATCC) and cultured in 75 cm2 flasks (CellStar). […] The cells were incubated for 48 hours followed by the addition of CellTiter-Glo™, a luminescence-based cell viability assay (Promega, Madison, Wis.). All luminescence readings were performed on a Tecan Infinite M1000 plate reader. […] The data was normalized to the controls and analyzed by nonlinear regression (GraphPad Prism).
We begin with a simple list: items and their reported HEK293 LD50.

Examples with answers:
1) C#Cc1ccc2c(c1)C(c1ccccc1F)=N[C@@H](C)c1c(C(=O)NC)ncn1-2 : >200 µM
2) C#Cc1ccc2c(c1)C(c1ccccc1F)=NCc1c(-c3nc(C)no3)ncn1-2 : >100 µM
3) C#Cc1ccc2c(c1)C(c1ccccc1F)=N[C@H](C)c1c(C(=O)NC)ncn1-2 : >100 µM

For this compound ( C#Cc1ccc2c(c1)C(c1ccccc1F)=N[C@H](C)c1c(C(=O)N3CCCC3)ncn1-2 ), measured HEK293 LD50 is >100 µM

For this compound ( Cc1noc(-c2ncn3c2[C@@H](C)N=C(c2ccccn2)c2cc(Br)ccc2-3)n1 ), measured HEK293 LD50 is >400 µM

For this compound ( C#Cc1ccc2c(c1)C(c1ccccc1F)=N[C@H](C)c1c(C(=O)N(C)C)ncn1-2 ), measured HEK293 LD50 is >200 µM

For this compound ( C#Cc1ccc2c(c1)C(c1ccccn1)=N[C@H](C)c1c(C(=O)NC)ncn1-2 ), measured HEK293 LD50 is >400 µM

For this compound ( CNC(=O)c1ncn2c1CN=C(c1ccccc1F)c1cc(Br)ccc1-2 ), measured HEK293 LD50 is >200 µM

For this compound ( C#Cc1ccc2c(c1)C(c1ccccc1F)=N[C@@H](C)c1c(C(=O)N(C)C)ncn1-2 ), measured HEK293 LD50 is >400 µM

For this compound ( C#Cc1ccc2c(c1)C(c1ccccn1)=N[C@H](C)c1c(-c3nc(C)no3)ncn1-2 ), measured HEK293 LD50 is >400 µM

###

Assay: Mouse liver microsome stability assay
Assay type: in vitro ADME
Conditions: mouse, liver microsomes; 10 μM compound; read-out: Half-life (min) (MouseLM)
Recorded half-life at 10 μM split into classes category 1 = under 200 min, category 2 = from 200 min up to 500 min, category 3 = 500 min and over

Recorded results for 5 compounds are shown here.
1) C#Cc1ccc2c(c1)C(c1ccccc1F)=NCc1c(-c3nc(C)no3)ncn1-2 : category 3
2) C#Cc1ccc2c(c1)C(c1ccccc1F)=N[C@H](C)c1c(C(=O)N3CCCC3)ncn1-2 : category 1
3) C#Cc1ccc2c(c1)C(c1ccccc1F)=N[C@H](C)c1c(C(=O)NCC)ncn1-2 : category 1
4) C#Cc1ccc2c(c1)C(c1ccccc1F)=N[C@H](C)c1c(C(=O)NC3CC3)ncn1-2 : category 2
5) Cc1noc(-c2ncn3c2[C@@H](C)N=C(c2ccccn2)c2cc(Br)ccc2-3)n1 : category 3

Now, please, on to the next compound.
Query: Which category does the recorded half-life at 10 μM put CNC(=O)c1ncn2c1CN=C(c1ccccc1F)c1cc(Br)ccc1-2 in?
Reply: category 2

###

Test system: HEPG2
Experiment: Cytotoxicity assay (CellTiter-Glo), HEPG2
Type: cell-based, human
Settings: 48 hours incubation
READOUT: HEPG2 LD50

Examples with answers:
1. C#Cc1ccc2c(c1)C(c1ccccn1)=N[C@H](C)c1c(C(=O)NC)ncn1-2 : >400 µM
2. C#Cc1ccc2c(c1)C(c1ccccc1F)=N[C@H](C)c1c(C(=O)N3CCCC3)ncn1-2 : >400 µM
3. C#Cc1ccc2c(c1)C(c1ccccn1)=N[C@H](C)c1c(-c3nc(C)no3)ncn1-2 : >400 µM
4. C#Cc1ccc2c(c1)C(c1ccccc1F)=NCc1c(-c3nc(C)no3)ncn1-2 : >100 µM
5. Cc1noc(-c2ncn3c2[C@@H](C)N=C(c2ccccn2)c2cc(Br)ccc2-3)n1 : >400 µM

For this molecule ( C#Cc1ccc2c(c1)C(c1ccccc1F)=N[C@H](C)c1c(C(=O)NC)ncn1-2 ), measured HEPG2 LD50 is >200 µM

For this molecule ( CNC(=O)c1ncn2c1CN=C(c1ccccc1F)c1cc(Br)ccc1-2 ), measured HEPG2 LD50 is >200 µM

For this molecule ( C#Cc1ccc2c(c1)C(c1ccccc1F)=N[C@@H](C)c1c(C(=O)NC)ncn1-2 ), measured HEPG2 LD50 is >200 µM

For this molecule ( C#Cc1ccc2c(c1)C(c1ccccc1F)=N[C@H](C)c1c(C(=O)N(C)C)ncn1-2 ), measured HEPG2 LD50 is >400 µM

For this molecule ( C#Cc1ccc2c(c1)C(c1ccccc1F)=N[C@@H](C)c1c(C(=O)N(C)C)ncn1-2 ), measured HEPG2 LD50 is >400 µM

###

Assay: Human liver microsome stability assay
Format: in vitro ADME
Settings: human, liver microsomes; 10 μM compound; read-out: Half-life (min) (HumanLM)
READOUT: log10 half-life at 10 μM (log10 of the value in min)
Please keep in mind that the values are log10 of half-life at 10 μM expressed in min.

1) Cc1noc(-c2ncn3c2[C@@H](C)N=C(c2ccccn2)c2cc(Br)ccc2-3)n1 : 2.61
2) C#Cc1ccc2c(c1)C(c1ccccc1F)=N[C@H](C)c1c(C(=O)N3CCCC3)ncn1-2 : 2.19
3) C#Cc1ccc2c(c1)C(c1ccccc1F)=N[C@H](C)c1c(C(=O)NC)ncn1-2 : 2.15
4) C#Cc1ccc2c(c1)C(c1ccccn1)=N[C@H](C)c1c(C(=O)NC)ncn1-2 : 3.27
5) C#Cc1ccc2c(c1)C(c1ccccc1F)=NCc1c(-c3nc(C)no3)ncn1-2 : 2.70

For this compound ( C#Cc1ccc2c(c1)C(c1ccccn1)=N[C@H](C)c1c(-c3nc(C)no3)ncn1-2 ), measured log10 half-life at 10 μM is 3.41

###

We begin with a simple list: items and their reported half-life at 10 μM.
Assay: Mouse liver microsome stability assay
Format: in vitro ADME
Details: mouse, liver microsomes; 10 μM compound; read-out: Half-life (min) (MouseLM)
Kindly answer with a numeric value in min, unit omitted.

For this compound ( C#Cc1ccc2c(c1)C(c1ccccn1)=N[C@H](C)c1c(-c3nc(C)no3)ncn1-2 ), measured half-life at 10 μM is 500

For this compound ( C#Cc1ccc2c(c1)C(c1ccccc1F)=N[C@@H](C)c1c(C(=O)N(C)C)ncn1-2 ), measured half-life at 10 μM is 53

For this compound ( C#Cc1ccc2c(c1)C(c1ccccc1F)=N[C@H](C)c1c(C(=O)NC)ncn1-2 ), measured half-life at 10 μM is 164

For this compound ( C#Cc1ccc2c(c1)C(c1ccccn1)=N[C@H](C)c1c(C(=O)NC)ncn1-2 ), measured half-life at 10 μM is 1840
